Cited source: patent US7022716B2

Answer each item with its documented IA(β3).
- subject.of.test: human β3 adrenergic receptor (Homo sapiens, UniProt P13945)
- Construct: Full length β3 AR clones (402 amino acids) containing the last 6 amino acids of hβ3-AR are prepared; expressed in transfected cells; host or cells: CHO (Chinese hamster ovary) cells
- Sequence (P13945 whole entry): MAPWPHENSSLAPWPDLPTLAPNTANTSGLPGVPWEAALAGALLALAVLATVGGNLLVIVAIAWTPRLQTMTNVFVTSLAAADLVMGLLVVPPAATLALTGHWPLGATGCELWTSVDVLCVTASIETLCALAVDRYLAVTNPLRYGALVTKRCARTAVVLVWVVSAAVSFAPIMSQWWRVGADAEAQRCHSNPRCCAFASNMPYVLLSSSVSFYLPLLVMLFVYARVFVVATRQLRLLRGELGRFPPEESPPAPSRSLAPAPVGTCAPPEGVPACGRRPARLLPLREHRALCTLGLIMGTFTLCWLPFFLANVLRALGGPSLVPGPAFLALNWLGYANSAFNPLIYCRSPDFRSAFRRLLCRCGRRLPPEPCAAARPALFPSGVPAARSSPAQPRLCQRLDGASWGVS
- test: cAMP (SPA) response in CHO cells transfected with human β3 adrenergic receptor
- Type: cell-based
- Design: key: fraction of maximal isoproterenol (10^-5 M) response
- conditions: maximal response relative to maximal response of isoproterenol at 10^-5 M
Give the value as a plain number.

Ask | Given the compound O=C1NC(=O)C(Cc2ccc(N3CCC(NC[C@H](O)COc4cccnc4)CC3)cc2)S1 (stereo partly drawn) , what is its reported IA(β3)?
Reply | 0.36

Ask | Given the compound `O=c1[nH]c2cccc(OC[C@@H](O)CNC3CCN(c4ccc(NS(=O)(=O)c5ccc(C(F)(F)F)cc5)cc4)CC3)c2[nH]1` , what is its reported IA(β3)?
Reply | 0.89

Ask | Given the compound CS(=O)(=O)Nc1cc(C(O)CNC2CCN(c3ccc(NS(=O)(=O)c4ccc(CC5SC(=O)NC5=O)cc4)cc3)CC2)ccc1O (stereo not drawn) , what is its reported IA(β3)?
Reply | 0.95

Ask | Given the compound `O=c1[nH]c2cccc(OC[C@@H](O)CNC3CCN(c4ccc(NS(=O)(=O)c5cc(Cl)c(Oc6ccc([N+](=O)[O-])cc6Cl)c(Cl)c5)cc4)CC3)c2[nH]1` , what is its reported IA(β3)?
Reply | 1.02

Ask | Given the compound COc1cc(C(O)CNC2CCN(c3ccc(NS(=O)(=O)c4ccc(NC(C)=O)cc4)cc3)CC2)ccc1O (stereo not drawn) , what is its reported IA(β3)?
Reply | 0.99

Ask | Given the compound `CCOC(=O)[C@@H](NC(=O)c1ccc(N2CCC(NC[C@H](O)c3ccc(O)c(NS(C)(=O)=O)c3)CC2)cc1)C(C)C` , what is its reported IA(β3)?
Reply | 1.2
